Exercise: for every item that follows, state its recorded IC50.
- TARGET: wild-type Epidermal Growth Factor Receptor (EGFR) (Homo sapiens (Human))
- ASSAY_PROCEDURE: WT-EGFR Kinase Assay (TR-FRET, 2 mM ATP)
- Assay type: biochemical
- CONDITION_DESCRIPTION: EGFR Wildtyp- 2 mM ATP IC50 [mol/l] (median)

Please give the documented IC50 of CC(C(=O)Nc1cc(-c2[nH]c3c(c2Nc2ccccc2)C(=O)N(C)C2(CCC2)C3)ccn1)c1ccc(F)cc1 (single isomer, unassigned; enantiomer 1) [Example 158] > 20 µM

Please give the documented IC50 of CN1CCc2[nH]c(-c3ccnc(NC(=O)C(CO)c4ccc(F)cc4)c3)c(Nc3ccccc3)c2C1=O (single isomer, unassigned) 14.9 µM

Please give the documented IC50 of CN1C(=O)c2c([nH]c(-c3ccnc(NC(=O)C(CC(F)F)c4ccc(F)cc4)c3)c2Nc2ccccc2)CC12CCC2 (racemic) [Example 160] > 20 µM

Please give the documented IC50 of CC1(C)Cc2[nH]c(-c3ccnc(NC(=O)C(CC(F)F)c4ccc(F)cc4)c3)c(Nc3ccccc3)c2C(=O)N1 (racemic) [Example 48] 14.5 µM

Please give the documented IC50 of Cc1ccccc1Nc1c(-c2ccnc(NC(=O)C(CC(F)F)c3ccc(F)cc3)c2)[nH]c2c1C(=O)NC(C)(C)C2 (racemic) [Example 135] > 20 µM

Please give the documented IC50 of CC1(C)Cc2[nH]c(-c3ccnc(NC(=O)C(CC(F)F)c4ccc(F)cc4)c3)c(Nc3ccccc3)c2C(=O)N1 (single isomer, unassigned; (+)) [Example 49] > 20 µM

Please give the documented IC50 of Cc1ccccc1Nc1c(-c2ccnc(NC(=O)C(C)c3ccc(F)cc3)c2)[nH]c2c1C(=O)NC(C)(C)C2 (racemic) [Example 132] > 20 µM

Please give the documented IC50 of CC1Cc2[nH]c(-c3ccnc(NC(=O)Cc4ccncc4)c3)c(Nc3ccccc3)c2C(=O)N1C (single isomer, unassigned; (-)) [Example 99] 0.329 µM

Please give the documented IC50 of CC(C(=O)Nc1cc(-c2[nH]c3c(c2Nc2ccccc2F)C(=O)N(C)CC3)ccn1)c1ccc(F)cc1 (single isomer, unassigned; (-)) > 20 µM

Please give the documented IC50 of CC1Cc2[nH]c(-c3ccnc(NC(=O)Cc4ccc(F)cc4)c3)c(Nc3ccccc3F)c2C(=O)N1C (single isomer, unassigned; (+)) [Example 101] > 20 µM

Please give the documented IC50 of CC(C(=O)Nc1cc(-c2[nH]c3c(c2Nc2ccccc2)C(=O)NC(C)(C)C3)ccn1)c1ccc(F)cc1 (single isomer, unassigned) [Example 39] > 20 µM

Please give the documented IC50 of CN1CCc2[nH]c(-c3ccnc(NC(=O)C(CC(F)F)c4ccccc4)c3)c(Nc3ccccc3)c2C1=O (single isomer, unassigned) [Example 35] 14.8 µM

Please give the documented IC50 of CN1CCc2[nH]c(-c3ccnc(NC(=O)Cc4ccc(F)cc4)c3)c(Nc3cc(F)ccc3F)c2C1=O > 20 µM

Please give the documented IC50 of CC(C(=O)Nc1cc(-c2[nH]c3c(c2Nc2ccccc2)C(=O)NCC3)ccn1)c1ccc(F)cc1 (single isomer, unassigned) [Example 11] 2.29 µM

Please give the documented IC50 of CN(C)CCCC(C(=O)Nc1cc(-c2[nH]c3c(c2Nc2ccccc2)C(=O)N(C)CC3)ccn1)c1ccccc1 (single isomer, unassigned; (-)) [Example 59] 16.3 µM

Please give the documented IC50 of CC1(C)Cc2[nH]c(-c3ccnc(NC(=O)C(CC(F)F)c4ccc(F)cc4)c3)c(Nc3cccc(F)c3Cl)c2C(=O)N1 (racemic) [Example 109] > 20 µM

Please give the documented IC50 of CC(C(=O)Nc1cc(-c2[nH]c3c(c2Nc2ccccc2)C(=O)N(C)C(C)C3)ccn1)c1ccc(F)cc1 (single isomer, unassigned; (+)) [Example 91] > 20 µM

---

Exercise: for every item that follows, state its recorded pIC50.
Here pIC50 is given on a logarithmic scale as minus log10 of the concentration in mol/L.

Identify measured pIC50 obtained with human CSNK1D (Homo sapiens (Human), UniProt P48730) for CC1(C)Cc2[nH]c(-c3ccnc(NC(=O)C(CC(F)F)c4ccc(F)cc4)c3)c(Nc3cccc(F)c3)c2C(=O)N1 (single isomer, unassigned; enantiomer 1) [Example 120] . 7.96

Identify measured pIC50 obtained with human CSNK1D (Homo sapiens (Human), UniProt P48730) for O=C1NC2(CCC2)Cc2[nH]c(-c3ccnc(NC(=O)C(CC(F)F)c4ccc(F)cc4)c3)c(Nc3cccc(F)c3Cl)c21 (racemic) [Example 123] . 8.00

Identify measured pIC50 obtained with human CSNK1D (Homo sapiens (Human), UniProt P48730) for CC(C(=O)Nc1cc(-c2[nH]c3c(c2Nc2ccccc2)C(=O)NCC3)ccn1)c1ccc(F)cc1 (single isomer, unassigned) [Example 10] . 7.85

---

- TARGET: wild-type Epidermal Growth Factor Receptor (EGFR) (Homo sapiens (Human), UniProt P00533)
- Sequence (P00533 669-1210): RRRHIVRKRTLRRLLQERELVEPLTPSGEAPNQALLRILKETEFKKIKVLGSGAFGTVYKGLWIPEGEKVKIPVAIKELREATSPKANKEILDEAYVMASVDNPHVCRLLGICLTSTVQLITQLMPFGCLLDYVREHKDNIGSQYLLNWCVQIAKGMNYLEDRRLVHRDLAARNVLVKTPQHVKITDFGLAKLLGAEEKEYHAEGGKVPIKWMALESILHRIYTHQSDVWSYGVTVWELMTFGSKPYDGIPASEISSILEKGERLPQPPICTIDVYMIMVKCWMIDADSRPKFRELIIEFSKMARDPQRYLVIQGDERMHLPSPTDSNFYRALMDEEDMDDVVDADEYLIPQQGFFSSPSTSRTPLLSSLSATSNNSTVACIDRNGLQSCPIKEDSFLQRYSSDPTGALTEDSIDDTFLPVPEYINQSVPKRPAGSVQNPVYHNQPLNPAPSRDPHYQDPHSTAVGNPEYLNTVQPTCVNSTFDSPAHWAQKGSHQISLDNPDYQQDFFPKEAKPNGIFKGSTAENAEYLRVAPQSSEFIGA
- ASSAY_PROCEDURE: WT-EGFR Kinase Assay (TR-FRET, 2 mM ATP)
- Format: biochemical
- CONDITION_DESCRIPTION: read-out: EGFR Wildtyp- 2 mM ATP IC50 [mol/l] (median)
Exercise: for every item that follows, state its recorded IC50.

Identify measured IC50 obtained with wild-type Epidermal Growth Factor Receptor (EGFR) (Homo sapiens (Human), UniProt P00533) for CCN1CCc2[nH]c(-c3ccnc(NC(=O)C(C)c4ccc(F)cc4)c3)c(Nc3ccccc3)c2C1=O (stereo not drawn) [Example 21] . > 20 µM

Identify measured IC50 obtained with wild-type Epidermal Growth Factor Receptor (EGFR) (Homo sapiens (Human), UniProt P00533) for CC1Cc2[nH]c(-c3ccnc(NC(=O)C(CC(F)F)c4ccc(F)cc4)c3)c(Nc3ccccc3F)c2C(=O)N1C (single isomer, unassigned; (-)) [Example 106] . > 20 µM

Identify measured IC50 obtained with wild-type Epidermal Growth Factor Receptor (EGFR) (Homo sapiens (Human), UniProt P00533) for CN1CCc2[nH]c(-c3ccnc(NC(=O)Cc4ccc(F)cc4)c3)c(Nc3cccc(F)c3F)c2C1=O . > 20 µM

---

- TARGET: human CSNK1A1 (Homo sapiens (Human))
- Sequence (P48729 whole entry): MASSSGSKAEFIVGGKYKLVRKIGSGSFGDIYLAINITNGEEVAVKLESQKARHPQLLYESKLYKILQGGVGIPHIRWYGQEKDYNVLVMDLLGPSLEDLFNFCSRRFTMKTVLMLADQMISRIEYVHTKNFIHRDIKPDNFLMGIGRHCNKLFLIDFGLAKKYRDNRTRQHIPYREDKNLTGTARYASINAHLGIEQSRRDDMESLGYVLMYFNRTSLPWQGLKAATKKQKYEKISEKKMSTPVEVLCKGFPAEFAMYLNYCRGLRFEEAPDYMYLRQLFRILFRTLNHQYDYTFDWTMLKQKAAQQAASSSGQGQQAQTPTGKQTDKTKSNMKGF
- ASSAY_PROCEDURE: CSNK1A1 Assay 2 (ADP-Glo, 1 μM ATP)
- Assay type: biochemical
- CONDITION_DESCRIPTION: substrate biotin-Ahx-KRRRAL-pS-VASLPGL, read-out: CSNK1A1 Assay 2 IC50 [mol/l] (median)
- Description: CSNK1A1-inhibitory activity of compounds of the present invention in presence of 1 μM adenosine-tri-phosphate (ATP) was quantified employing the CSNK1A1 assay as described in the following paragraphs. In essence, the enzyme activity is measured by quantification of the adenosine-di-phosphate (ADP), which is generated as a co-product of the enzyme reaction, via the “ADP-Glo™ Kinase Assay” kit from the company Promega. […]
pIC50: −log10 of the molar value.
Output Y for pIC50 not less than 8; output N otherwise.

Check the entry C[C@H](C(=O)Nc1cc(-c2[nH]c3c(c2Nc2ccccc2)C(=O)N(C)CC3)ccn1)c1ccc(F)cc1 (single isomer, unassigned) : does pIC50 equal or exceed 8? Y

Check the entry O=C(Cc1ccc(F)cc1)Nc1cc(-c2[nH]c3c(c2Nc2ccccc2)C(=O)NC2(CC2)C3)ccn1 : does pIC50 equal or exceed 8? Y

Check the entry CN(C)CCCC(C(=O)Nc1cc(-c2[nH]c3c(c2Nc2ccccc2)C(=O)N(C)CC3)ccn1)c1ccccc1 (single isomer, unassigned; (-)) [Example 59] : does pIC50 equal or exceed 8? N

Check the entry CC1Cc2[nH]c(-c3ccnc(NC(=O)C(CC(F)F)c4ccc(F)cc4)c3)c(Nc3ccccc3F)c2C(=O)N1C (single isomer, unassigned; (+)) [Example 105] : does pIC50 equal or exceed 8? Y

Check the entry Cc1ccccc1Nc1c(-c2ccnc(NC(=O)C(C)c3ccc(F)cc3)c2)[nH]c2c1C(=O)NC(C)(C)C2 (single isomer, unassigned; enantiomer 1) [Example 133] : does pIC50 equal or exceed 8? N

Check the entry CN1CCc2[nH]c(-c3ccnc(NC(=O)C(CO)c4ccc(F)cc4)c3)c(Nc3ccccc3)c2C1=O (single isomer, unassigned) [Example 19] : does pIC50 equal or exceed 8? Y

Check the entry CN1CCc2[nH]c(-c3ccnc(NC(=O)Cc4ccc(C(F)F)cc4)c3)c(Nc3ccccc3)c2C1=O : does pIC50 equal or exceed 8? Y

Check the entry CC1(C)Cc2[nH]c(-c3ccnc(NC(=O)C(CN)c4ccc(F)cc4)c3)c(Nc3ccccc3)c2C(=O)N1 (single isomer, unassigned; enantiomer 1) [Example 140] : does pIC50 equal or exceed 8? Y

Check the entry CN1CCc2[nH]c(-c3ccnc(NC(=O)C(CC(F)F)c4ccccc4)c3)c(Nc3ccccc3)c2C1=O (single isomer, unassigned) [Example 35] : does pIC50 equal or exceed 8? N

Check the entry Cc1ccccc1Nc1c(-c2ccnc(NC(=O)C(CC(F)F)c3ccc(F)cc3)c2)[nH]c2c1C(=O)NC(C)(C)C2 (single isomer, unassigned; enantiomer 2) [Example 137] : does pIC50 equal or exceed 8? N

Check the entry O=C1NC2(CC2)Cc2[nH]c(-c3ccnc(NC(=O)C(CC(F)F)c4ccc(F)cc4)c3)c(Nc3ccccc3)c21 (single isomer, unassigned; enantiomer 2) [Example 149] : does pIC50 equal or exceed 8? N

Check the entry CC(C(=O)Nc1cc(-c2[nH]c3c(c2Nc2ccccc2)C(=O)NC(C)(C)C3)ccn1)c1ccc(F)cc1 (single isomer, unassigned) [Example 39] : does pIC50 equal or exceed 8? N

Check the entry CN1CCc2[nH]c(-c3ccnc(NC(=O)Cc4cccc(C(F)(F)F)c4)c3)c(Nc3ccccc3)c2C1=O : does pIC50 equal or exceed 8? N

Check the entry CC1(C)Cc2[nH]c(-c3ccnc(NC(=O)C(CC(F)F)c4ccc(F)cc4)c3)c(Nc3cccc(F)c3Cl)c2C(=O)N1 (single isomer, unassigned; (-)) [Example 110] : does pIC50 equal or exceed 8? N

Check the entry CN1CCc2[nH]c(-c3ccnc(NC(=O)Cc4cccc(S(C)(=O)=O)c4)c3)c(Nc3ccccc3)c2C1=O : does pIC50 equal or exceed 8? Y
